Assay: Stability in buffer at various pH values
Format: physicochemical
Settings: pH 7.4, 37° C., 24 h
Description: 0.3 mg of the test substance is weighed into a 2 ml HPLC vial and 0.5 ml of acetonitrile or acetonitrile/DMSO (9:1) is added. The substance is dissolved by putting the sample vessel in an ultrasonic bath for about 10 seconds. […] 5 μl portions of the test solution are analyzed by HPLC for their content of unchanged test substance, and of active substance (A) formed, every hour over a period of 24 hours at 37° C. The percentage areas of the appropriate peaks are used for quantification. […]
Counter-ions that a name gives are not always drawn.
Quick list: % test substance after 24 h [F(t = 24 h) × 100/F(t = 0 h)] per entry.
Could you give me the number in %? Just the number is fine.

Worked examples follow.
Compound | Assay result
C[C@H](N)C(=O)N[C@@H](C)C(=O)OC[C@H](COc1ccc(-c2c(C#N)c(N)nc(SCc3coc(-c4ccc(Cl)cc4)n3)c2C#N)cc1)OC(=O)[C@H](C)NC(=O)[C@H](C)N [Example 33] | 0
CC(C)[C@H](N)C(=O)N[C@@H](C)C(=O)OC[C@H](COc1ccc(-c2c(C#N)c(N)nc(SCc3coc(-c4ccc(Cl)cc4)n3)c2C#N)cc1)OC(=O)[C@H](C)NC(=O)[C@@H](N)C(C)C [Example 26] | 34

Fill in: % test substance after 24 h [F(t = 24 h) × 100/F(t = 0 h)] of C[C@H](NC(=O)C[C@H](N)C(=O)O)C(=O)OC[C@H](COc1ccc(-c2c(C#N)c(N)nc(SCc3coc(-c4ccc(Cl)cc4)n3)c2C#N)cc1)OC(=O)[C@H](C)NC(=O)C[C@H](N)C(=O)O [Example 14, bis(trifluoroacetic acid) salt] is ___
91
